assay.explanation: Human plasma protein binding of technetium complexes (ultrafiltration)
Type: in vitro ADME
assay.setup: technetium complex, read-out: PPB % bound (converted)
Consider the following compounds and their measured fraction unbound readings.
Answer with a number only.

In [3]: df
Out[3]:
                                   compound       metric_name  obs_value
0  CC(=O)NCCNC(=O)CSCCSC1CCCCO1 (centres unmarked) [HL15P]  fraction unbound          1

Query: Quickly give me recorded fraction unbound for CC(=O)NCCNC(=O)CCSCCSC1CCCCO1 (centres unmarked)
Response: 0.82

Query: Quickly give me recorded fraction unbound for CC(C)(S)CNCCNCC(C)(C)S [BAT, reference compound]
Response: 0.38

Query: Quickly give me recorded fraction unbound for CC(=NO)C(C)(C)NCCCNC(C)(C)C(C)=NO [PnAO, reference compound]
Response: 0.25

Query: Quickly give me recorded fraction unbound for CC(=O)NCCCNC(=O)CSCCSC1CCCCO1 (centres unmarked) [HL60P]
Response: 1
